# Test system: H3255
# EXPERIMENT_NOTES: relative viability (nuclei count vs DMSO), 5 days (fraction); higher = more cells survive
# CONDITION_NOTES: first compound 0.03162 µM
MEASURED_PROPERTY: relative viability
Numbers only.

See these solved cases before continuing.
INSERT INTO measurements (compound, measured_on, observed) VALUES
  ('NC(=O)Nc1cc(-c2cccc(F)c2)sc1C(=O)N[C@H]1CCCNC1 [AZD7762] + COc1cccc2cc(-c3nc([C@H]4CC[C@H](C(=O)O)CC4)n4ncnc(N)c34)[nH]c12 [OSI-027] (partner 0.5 µM)', 'H3255', 0.506),
  ('NC(=O)Nc1cc(-c2cccc(F)c2)sc1C(=O)N[C@H]1CCCNC1 [AZD7762] + C[C@]1(O)C[C@@H](c2nc(-c3ccc4ccc(-c5ccccc5)nc4c3)c3c(N)nccn32)C1 [Linsitinib] (partner 1 µM)', 'H3255', 1.04),
  ('NC(=O)Nc1cc(-c2cccc(F)c2)sc1C(=O)N[C@H]1CCCNC1 [AZD7762] + CC(=O)Nc1cccc(-n2c(=O)n(C3CC3)c(=O)c3c(Nc4ccc(I)cc4F)n(C)c(=O)c(C)c32)c1 [Trametinib] (partner 0.02 µM)', 'H3255', 0.72);

API: the following record is the query input.
Recorded relative viability for NC(=O)Nc1cc(-c2cccc(F)c2)sc1C(=O)N[C@H]1CCCNC1 [AZD7762] + Cc1cc(Nc2cc(N3CCN(C)CC3)nc(Sc3ccc(NC(=O)C4CC4)cc3)n2)n[nH]1 [Tozasertib] (partner 0.1 µM) , please?
0.595

Cited source for all entries: the supplement of paper PMC10307832
